Target: Protein cereblon/Bromodomain-containing protein 9 (Homo sapiens, UniProt Q9H8M2+Q96SW2)
Sequence (Q96SW2 whole entry, looked up): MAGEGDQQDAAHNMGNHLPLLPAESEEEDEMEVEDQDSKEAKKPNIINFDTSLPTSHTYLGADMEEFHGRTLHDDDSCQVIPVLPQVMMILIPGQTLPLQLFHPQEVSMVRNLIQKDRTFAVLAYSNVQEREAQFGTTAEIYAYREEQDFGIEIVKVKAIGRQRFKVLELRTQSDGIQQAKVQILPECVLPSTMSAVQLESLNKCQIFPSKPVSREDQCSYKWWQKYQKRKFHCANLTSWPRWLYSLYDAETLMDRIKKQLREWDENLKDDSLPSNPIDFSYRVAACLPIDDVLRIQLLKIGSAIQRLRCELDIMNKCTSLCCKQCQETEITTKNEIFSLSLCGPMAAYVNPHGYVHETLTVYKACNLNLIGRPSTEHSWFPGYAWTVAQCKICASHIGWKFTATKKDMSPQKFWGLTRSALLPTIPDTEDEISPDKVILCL
Sequence (Q9H8M2 whole entry, looked up): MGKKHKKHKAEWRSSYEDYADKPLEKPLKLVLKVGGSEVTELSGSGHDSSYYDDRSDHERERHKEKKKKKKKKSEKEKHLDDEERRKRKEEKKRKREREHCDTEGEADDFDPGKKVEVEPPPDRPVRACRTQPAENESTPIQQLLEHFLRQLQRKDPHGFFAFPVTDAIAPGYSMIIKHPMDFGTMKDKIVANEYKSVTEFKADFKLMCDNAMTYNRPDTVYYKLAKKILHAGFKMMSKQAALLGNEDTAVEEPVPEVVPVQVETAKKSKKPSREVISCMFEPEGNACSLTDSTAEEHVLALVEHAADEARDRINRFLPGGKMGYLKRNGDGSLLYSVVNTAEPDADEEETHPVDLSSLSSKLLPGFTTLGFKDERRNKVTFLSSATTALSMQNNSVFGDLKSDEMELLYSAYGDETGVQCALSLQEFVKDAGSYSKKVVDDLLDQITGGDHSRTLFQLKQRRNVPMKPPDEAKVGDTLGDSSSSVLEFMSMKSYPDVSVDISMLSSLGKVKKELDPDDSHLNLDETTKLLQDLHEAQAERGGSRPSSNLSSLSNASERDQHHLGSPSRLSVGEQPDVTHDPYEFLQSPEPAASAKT
Test: PROTAC activity at CRBN/BRD9 in human MV4-11 cells assessed as induction of BRD9 degradation at 100 nM by Western blot analysis relative to control
Type: cell-based
observedProperty: Activity (%)
Answers are plain numbers, in %.

Below, 4 compounds whose answers are already recorded.
*Q* Entry COc1cc(-c2cn(C)c(=O)c3ccccc23)cc(OC)c1CN1CCN(c2ccc(NC3CCC(=O)NC3=O)cc2F)CC1 (stereo not given) has what Activity?
*A* 86

*Q* What Activity value was documented for this compound, COc1cc(-c2cn(C)c(=O)c3ccccc23)cc(OC)c1CN1CCN(c2ccc(C3CCC(=O)NC3=O)cc2)CC1 (stereo not given) ?
*A* 83.7

*Q* Reported Activity for COc1cc(-c2cn(C)c(=O)c3ccccc23)cc(OC)c1CN1CCN(c2ccc(N3CCC(=O)NC3=O)cc2)CC1 : what is it?
*A* 25

*Q* Please look up its Activity: COc1cc(-c2cn(C)c(=O)c3ccccc23)cc(OC)c1CN1CCC(CN2CCC(c3ccc4c5c(cccc35)C(=O)N4C3CCC(=O)NC3=O)CC2)CC1 (stereo not given)
*A* 95

Okay, now this compound:
*Q* Give the measured Activity of COc1cc(-c2cn(C)c(=O)c(C)c2C)cc(OC)c1CN1CC[C@H](N2CCN(c3ccc(N[C@H]4CCC(=O)NC4=O)cc3F)CC2)C(F)(F)C1 (racemic) [SENDEGOBRESIB] .
*A* 93.9

----------
Assign Activity to each entry below.
Biological target: Protein cereblon/Bromodomain-containing protein 9 (Homo sapiens, UniProt Q9H8M2+Q96SW2)
Experiment: PROTAC activity at CRBN/BRD9 in human MV4-11 cells assessed as induction of BRD9 degradation at 10 nM by Western blot analysis relative to control
Assay type: cell-based
Answers are plain numbers, in %.

// each molecule listed below needs its Activity
1. COc1cc(-c2cn(C)c(=O)c3ccccc23)cc(OC)c1CN1CCN(c2ccc(NC3CCC(=O)NC3=O)cc2)CC1 (configuration not stated)
2. COc1cc(-c2cn(C)c(=O)c(C)c2C)cc(OC)c1CN1CC[C@H](N2CCN(c3ccc(N[C@H]4CCC(=O)NC4=O)cc3F)CC2)C(F)(F)C1 (racemic) [SENDEGOBRESIB]

*A*
[66, 74.9]

Hi, could you look up Activity for each item in my list?
1. COc1cc(-c2cn(C)c(=O)c3ccccc23)cc(OC)c1CN1CCC(CN2CCN(c3ccc(C(=O)NC4CCC(=O)NC4=O)nc3)CC2)CC1 (configuration not stated)
2. COc1cc(-c2cn(C)c(=O)c3ccccc23)cc(OC)c1CN1CCN(c2ccc(C(=O)NC3CCC(=O)NC3=O)nc2)CC1 (configuration not stated)
3. COc1cc(-c2cn(C)c(=O)c3ccccc23)cc(OC)c1CN1CCC(CN2CCN(c3ccc(OC4CCC(=O)NC4=O)cc3)CC2)CC1 (configuration not stated)
4. COc1cc(-c2cn(C)c(=O)c3ccccc23)cc(OC)c1CN1CCN(c2ccc(C(=O)NC3CCC(=O)NC3=O)cn2)CC1 (configuration not stated)

*A*
[95.5, 21.3, 89, 39.3]

Provide each entry's Activity from the list below.
1. COc1cc(-c2cn(C)c(=O)c3ccccc23)cc(OC)c1CN1CCC(CN2CCC(c3ccc4c5c(cccc35)C(=O)N4C3CCC(=O)NC3=O)CC2)CC1 (configuration not stated)
2. COc1cc(-c2cn(C)c(=O)c3ccccc23)cc(OC)c1CN1CCN(c2ccc(NC3CCC(=O)NC3=O)cn2)CC1 (configuration not stated)

*A*
[98.5, 46.7]

Your task in this section: give Activity for each listed record.
1. COc1cc(-c2cn(C)c(=O)c3ccccc23)cc(OC)c1CN1CCC(CN2CCN(c3ccc(NC4CCC(=O)NC4=O)cn3)CC2)CC1 (configuration not stated)
2. COc1cc(-c2cn(C)c(=O)c3ccccc23)cc(OC)c1CN1CCC(CN2CCN(c3ccc(NC4CCC(=O)NC4=O)cc3)CC2)CC1 (configuration not stated)
3. COc1cc(-c2cn(C)c(=O)c3ccccc23)cc(OC)c1CN1CCN(c2ccc(NC3CCC(=O)NC3=O)cc2F)CC1 (configuration not stated)
4. COc1cc(-c2cn(C)c(=O)c3ccccc23)cc(OC)c1CN1CCN(c2ccc(C(=O)NC3CCC(=O)NC3=O)cc2)CC1 (configuration not stated)

*A*
[85.5, 96.5, 74.7, 32.3]
